The reported numbers originate from patent US20260209362A1.

Molecular target: T1, biotinylated recombinant mouse IL-12Rβ2 (mouse, UniProt P97378 24-637, random biotinylated)
T1 construct: Recombinant protein produced in-house, biotinylated; also called mIL-12RB2; mouse IL-12RB2
T1 sequence: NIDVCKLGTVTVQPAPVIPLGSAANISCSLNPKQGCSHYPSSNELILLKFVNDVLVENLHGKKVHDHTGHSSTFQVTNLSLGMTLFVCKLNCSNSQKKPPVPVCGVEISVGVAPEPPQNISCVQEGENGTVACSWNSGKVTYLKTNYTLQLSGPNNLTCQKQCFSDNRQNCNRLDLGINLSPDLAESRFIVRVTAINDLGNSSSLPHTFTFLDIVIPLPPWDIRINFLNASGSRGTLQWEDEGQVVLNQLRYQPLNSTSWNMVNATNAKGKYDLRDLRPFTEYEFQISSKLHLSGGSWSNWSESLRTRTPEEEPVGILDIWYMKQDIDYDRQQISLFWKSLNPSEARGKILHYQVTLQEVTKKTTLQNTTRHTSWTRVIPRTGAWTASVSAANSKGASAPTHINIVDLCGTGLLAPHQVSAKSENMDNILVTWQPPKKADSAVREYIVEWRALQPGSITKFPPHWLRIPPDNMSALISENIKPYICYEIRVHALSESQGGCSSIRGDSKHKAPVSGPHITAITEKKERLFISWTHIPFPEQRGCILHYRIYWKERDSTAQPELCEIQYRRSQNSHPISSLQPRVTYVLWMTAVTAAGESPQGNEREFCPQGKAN
Test: ELISA, periplasmic extract on biotinylated mIL-12Rβ2, signal over control wells
Listed next: entries and their corresponding ELISA binding mIL-12RB2/control.
Your answer is read as ratio, so omit the unit and give the number.

[[record]]
binder = "anti-IL-12Rβ2 VHH clone 20477 (VHH, not shown: small tags and cut ends, tested as periplasmic extract; also called 2CAM27) VHH: QVQLQESGGGLVQAGGSLRLSCAPSGRTFSTYAMGWFRQALGKEREVVATISWSGGRIYYTDSVKGRFTISRDNAKNTAYLQMNSLRPDDTAVYYCAARGTDYGAWEYWGQGTQVTVSS"
testreadout = "ELISA binding mIL-12RB2/control"
scaleunit = "ratio"
reportedmeasurement = 20.9


Now examine the next entry.
Prompt line: Entry under review: anti-IL-12Rβ2 VHH clone 21053 (VHH, not shown: small tags and cut ends, tested as periplasmic extract; also called 3CRHM14) VHH: QVQLQESGGGLVQAGGSLRLSCAASGRTFSNYAMAWFRQAPGTEREFVAGLSGSGGDTEFYDDSVKGRFAISRDSAKNTVWLQMNSLKPEDTAVYYCAAATHVVVHYGLVRRRGTYDYWGQGTQVTVSS . Reported ELISA binding mIL-12RB2/control?
Response line: 25.1
